Target: hQ23 (HEK-293 cell line stably transfected with one of the members of the KCNQ family) (Homo sapiens, UniProt O43525+O43526)
Construct: expressed in transfected cells; host or cells: HEK-293, stably transfected
Sequence (O43526 whole entry): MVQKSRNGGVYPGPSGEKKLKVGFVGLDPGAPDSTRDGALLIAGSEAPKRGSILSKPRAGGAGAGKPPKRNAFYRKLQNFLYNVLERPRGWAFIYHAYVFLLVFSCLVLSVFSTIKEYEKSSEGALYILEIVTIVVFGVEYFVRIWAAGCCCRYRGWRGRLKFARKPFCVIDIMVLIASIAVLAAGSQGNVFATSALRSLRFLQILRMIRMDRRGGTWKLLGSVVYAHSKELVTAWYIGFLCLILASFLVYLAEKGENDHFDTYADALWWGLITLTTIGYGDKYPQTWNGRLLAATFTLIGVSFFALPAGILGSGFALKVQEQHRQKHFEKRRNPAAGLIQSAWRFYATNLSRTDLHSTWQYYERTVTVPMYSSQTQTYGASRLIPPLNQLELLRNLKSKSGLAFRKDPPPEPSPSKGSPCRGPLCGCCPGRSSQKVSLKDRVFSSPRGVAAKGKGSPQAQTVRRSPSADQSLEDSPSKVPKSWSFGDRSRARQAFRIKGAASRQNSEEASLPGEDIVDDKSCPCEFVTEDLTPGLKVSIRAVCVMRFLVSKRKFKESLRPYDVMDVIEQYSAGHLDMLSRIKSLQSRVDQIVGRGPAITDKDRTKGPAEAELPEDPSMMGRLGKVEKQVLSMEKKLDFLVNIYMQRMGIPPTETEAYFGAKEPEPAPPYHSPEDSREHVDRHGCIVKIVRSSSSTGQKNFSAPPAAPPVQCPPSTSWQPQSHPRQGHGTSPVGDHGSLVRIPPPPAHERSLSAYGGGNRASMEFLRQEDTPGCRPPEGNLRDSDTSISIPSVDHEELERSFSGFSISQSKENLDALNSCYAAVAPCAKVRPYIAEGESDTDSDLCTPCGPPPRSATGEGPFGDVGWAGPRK
Sequence (O43525 whole entry): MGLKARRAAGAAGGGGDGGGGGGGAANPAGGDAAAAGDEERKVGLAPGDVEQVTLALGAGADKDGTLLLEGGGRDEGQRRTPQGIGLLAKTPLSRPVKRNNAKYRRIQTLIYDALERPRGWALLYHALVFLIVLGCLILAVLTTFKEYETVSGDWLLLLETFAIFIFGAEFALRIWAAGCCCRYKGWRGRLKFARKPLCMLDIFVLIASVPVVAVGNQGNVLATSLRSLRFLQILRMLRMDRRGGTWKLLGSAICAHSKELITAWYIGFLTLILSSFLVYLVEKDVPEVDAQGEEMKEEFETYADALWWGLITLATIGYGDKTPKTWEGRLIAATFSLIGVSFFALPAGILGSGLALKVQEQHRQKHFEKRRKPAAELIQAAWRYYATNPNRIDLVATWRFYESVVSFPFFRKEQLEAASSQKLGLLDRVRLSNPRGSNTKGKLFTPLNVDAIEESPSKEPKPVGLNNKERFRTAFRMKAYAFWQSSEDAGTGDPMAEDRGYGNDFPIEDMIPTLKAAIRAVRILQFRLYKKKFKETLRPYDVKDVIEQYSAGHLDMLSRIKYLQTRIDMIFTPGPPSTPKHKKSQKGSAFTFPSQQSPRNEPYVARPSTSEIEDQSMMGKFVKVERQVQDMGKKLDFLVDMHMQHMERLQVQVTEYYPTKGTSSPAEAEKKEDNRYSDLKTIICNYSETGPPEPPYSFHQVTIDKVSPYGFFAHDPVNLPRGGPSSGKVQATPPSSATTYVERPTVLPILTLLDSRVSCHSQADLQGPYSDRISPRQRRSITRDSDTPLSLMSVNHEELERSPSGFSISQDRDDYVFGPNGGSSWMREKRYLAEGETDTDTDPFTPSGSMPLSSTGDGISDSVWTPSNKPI
Test: Thallium flux assay for KCNQ channel blockers (FLIPR, BTC dye)
Type: cell-based
Conditions: hQ23 cells, thallium flux
Protocol: Thallium Flux Assay for KCNQ channel blockers. […] For generating IC50 values, compounds were serially diluted in 1:3 volume increments to produce a 10 point concentration series. IC50 values were calculated by fitting the resulting amplitudes to a single-site logistic equation. […]
Recorded Endpoint: EC50 (nM)
A number alone suffices; assume nM.

Some solved entries appear below for comparison.
O=C(NCc1ccc(F)cc1F)c1cnc(NC2CCCC2)nc1C1(c2ccc(Cl)cc2)CCCC1 : 340
CC1CCN(c2ncc(C(=O)NCc3ccc4c(c3)OCO4)c(C3(c4ccccc4)CCCC3)n2)CC1 : 37
CCN(C(=O)c1cnc(N2CCC(C)CC2)nc1C1(c2ccc(F)cc2)CCCC1)C1CCCCC1 : 922

Turning to the following molecule.
**Q:** Dear colleague, I am looking for the recorded EC50 of the following molecule: CC1CCC(Nc2ncc(C(=O)NCc3cccc4ccccc34)c(C3(c4ccccc4)CCCC3)n2)CC1 (stereo not shown)
**A:** 194
